# target-or-system: recombinant human ROCK-1 (Homo sapiens)
# Sequence (Q13464 whole entry): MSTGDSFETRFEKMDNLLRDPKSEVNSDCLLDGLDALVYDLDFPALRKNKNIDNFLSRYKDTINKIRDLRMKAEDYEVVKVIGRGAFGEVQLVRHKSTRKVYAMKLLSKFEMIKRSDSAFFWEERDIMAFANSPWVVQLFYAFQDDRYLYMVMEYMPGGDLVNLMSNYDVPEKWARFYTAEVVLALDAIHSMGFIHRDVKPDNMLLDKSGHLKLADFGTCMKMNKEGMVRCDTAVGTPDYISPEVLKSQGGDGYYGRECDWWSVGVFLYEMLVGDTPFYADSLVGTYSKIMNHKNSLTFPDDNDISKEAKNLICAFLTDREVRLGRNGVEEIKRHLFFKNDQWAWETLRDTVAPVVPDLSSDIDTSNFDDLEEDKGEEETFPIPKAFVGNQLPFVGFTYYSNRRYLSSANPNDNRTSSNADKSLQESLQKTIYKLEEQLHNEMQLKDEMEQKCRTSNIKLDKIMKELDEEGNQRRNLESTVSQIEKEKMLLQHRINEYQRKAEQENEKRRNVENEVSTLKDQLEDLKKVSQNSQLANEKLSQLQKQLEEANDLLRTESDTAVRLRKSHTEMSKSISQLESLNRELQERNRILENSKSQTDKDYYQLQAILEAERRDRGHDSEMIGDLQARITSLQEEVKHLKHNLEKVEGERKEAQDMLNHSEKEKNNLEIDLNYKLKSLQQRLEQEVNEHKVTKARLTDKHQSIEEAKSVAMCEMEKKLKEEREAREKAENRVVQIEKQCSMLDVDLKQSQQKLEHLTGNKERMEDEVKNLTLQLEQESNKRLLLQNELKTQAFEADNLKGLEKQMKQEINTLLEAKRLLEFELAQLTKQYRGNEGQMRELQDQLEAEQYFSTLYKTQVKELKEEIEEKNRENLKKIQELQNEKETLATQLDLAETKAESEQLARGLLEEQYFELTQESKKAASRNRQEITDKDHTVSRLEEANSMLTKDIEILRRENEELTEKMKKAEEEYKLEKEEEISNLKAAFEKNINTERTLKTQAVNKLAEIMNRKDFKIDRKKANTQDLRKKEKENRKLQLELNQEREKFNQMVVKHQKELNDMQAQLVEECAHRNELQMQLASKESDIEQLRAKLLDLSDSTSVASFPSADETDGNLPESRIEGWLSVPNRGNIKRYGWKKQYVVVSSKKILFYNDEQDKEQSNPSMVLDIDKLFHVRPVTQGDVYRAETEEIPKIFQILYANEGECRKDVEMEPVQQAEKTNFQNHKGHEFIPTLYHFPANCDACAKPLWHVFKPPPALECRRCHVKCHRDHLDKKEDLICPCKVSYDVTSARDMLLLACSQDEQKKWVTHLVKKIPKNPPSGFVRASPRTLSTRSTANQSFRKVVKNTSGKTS
# protocol-summary: In-vitro inhibitory activity on recombinant human ROCK-1 (IMAP fluorescence polarisation, fluorescein-labelled peptide)
# Format: biochemical
# measurement-parameters: read-out: ROCK-I pIC50 (converted)
# Description: In-Vitro Determination of Inhibitory Activity of Compounds of the Invention on Recombinant Human ROCK-1 10 μl of a 0.1 ng/μl solution of recombinant human ROCK-1 in assay buffer containing 2 mM dithiothreitol, is then added to each well, yielding a final test compound concentration of 10 μM. Following a one hour incubation at room temperature in the dark, enzyme activity is detected by adding 60 μl of IMAP binding reagent (Molecular Devices) to each well.
observed-property: IC50 (nM)

Consider the worked cases shown below.
- molecule: "COc1cccc(CN2CCC(Oc3ccc4c(=O)[nH]ccc4c3)CC2)c1 [Example 31F]"
  target-or-system: "recombinant human ROCK-1 (Homo sapiens)"
  recorded-measurement: 398
- molecule: "O=c1[nH]cc(Br)c2cc(O[C@H]3CCCNC3)ccc12 [Example 29]"
  target-or-system: "recombinant human ROCK-1 (Homo sapiens)"
  recorded-measurement: 316
- molecule: "Nc1nccc2cc(S[C@@H]3CCNC3)ccc12 [Example 13B]"
  target-or-system: "recombinant human ROCK-1 (Homo sapiens)"
  recorded-measurement: 631

1: O=c1[nH]ccc2cc(O[C@@H]3CCCN(CCOc4ccccc4)C3)ccc12 [Example 32E]
2: O=c1[nH]ccc2cc(OC3CCCN(CC4CCCCC4)C3)ccc12 (stereo not drawn) [Example 33C]
Exam item: Pick one: 1 or 2 . Which one has the lower reported IC50? Identify your pick by its label.
Marked response: 1
